Parameter: pIC50. Scope: all listed entries.
test-system: IKKε (Homo sapiens)
Sequence (Q14164 1-716): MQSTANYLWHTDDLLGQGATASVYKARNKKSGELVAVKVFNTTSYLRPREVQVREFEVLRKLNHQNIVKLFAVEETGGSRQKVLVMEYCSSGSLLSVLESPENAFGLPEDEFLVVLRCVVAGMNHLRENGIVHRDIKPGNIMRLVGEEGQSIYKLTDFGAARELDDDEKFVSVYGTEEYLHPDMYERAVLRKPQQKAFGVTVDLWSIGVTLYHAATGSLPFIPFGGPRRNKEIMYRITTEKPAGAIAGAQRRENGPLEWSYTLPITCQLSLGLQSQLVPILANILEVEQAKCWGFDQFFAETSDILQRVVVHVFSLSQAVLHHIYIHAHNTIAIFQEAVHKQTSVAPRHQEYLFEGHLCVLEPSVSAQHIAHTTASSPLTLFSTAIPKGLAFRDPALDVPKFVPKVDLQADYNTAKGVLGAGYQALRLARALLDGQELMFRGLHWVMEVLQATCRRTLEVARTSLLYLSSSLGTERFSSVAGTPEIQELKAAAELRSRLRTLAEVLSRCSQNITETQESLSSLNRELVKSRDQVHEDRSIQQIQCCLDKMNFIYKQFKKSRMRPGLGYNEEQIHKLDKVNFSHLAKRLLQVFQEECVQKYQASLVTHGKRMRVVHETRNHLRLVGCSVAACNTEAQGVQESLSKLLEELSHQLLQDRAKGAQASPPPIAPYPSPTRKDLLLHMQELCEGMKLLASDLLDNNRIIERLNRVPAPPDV
measurement-description: IKKe Biochemical Assay
conditions-used: read-out: IKKε IC50
pIC50: −log10 of the molar value.

// worked examples, pIC50 included
1) CC(=O)Nc1ccc(-c2cc3nccc(-c4ccc(OC5CCOCC5)c(C#N)c4)c3o2)cc1 [Compound 154]; > 7.00
2) CN(C)C(=O)c1cnc(-c2cc3nccc(-c4cc(F)c(OC5CCOCC5)c(C#N)c4)c3o2)c(F)c1 [Compound 247]; 6.00 to 7.00
3) COc1cc(C(=O)N(C)C)ccc1-c1cc2nccc(-c3ccc(NC4CC(C)OC(C)C4)c(C#N)c3)c2o1 (stereo not shown) [Compound 228]; > 7.00

Pending compound:
I'd like to know its pIC50. The compound in question is COc1cc(C(=O)N(C)OC)ccc1-c1cc2nccc(-c3ccc(OC4CCOCC4)c(C#N)c3)c2o1 [Compound 53] > 7.00

Where do these numbers come from? They come from patent US10428080B2.
